Test system: BT-549 breast
assay_method_text: NCI-60 one-dose screen, 48 h (100 = growth as untreated, 0 = no growth, -100 = all killed)
conditions_used: 10 µM unless noted
The panel holds about 83,000 compounds, 20% with a hit somewhere; the sample as a whole holds those more often.
The entries below come with measured growth values attached.
Quick note: give the figure in %, leave out the unit.

{"columns": ["molecule", "system_name", "result_unit", "growth"],
 "data": [
  ["[N-]=[N+]=NCC1OC(n2cnc3c(NC(=O)Nc4ccccc4)ncnc32)C2OC(=O)CC12 (stereo not given)", "BT-549 breast", "%", 104],
  ["Cc1cc(=O)n(C(=S)Nc2ccc(Cl)cc2)c2cc(O)ccc12", "BT-549 breast", "%", 119],
  ["COc1cc(/C=C/c2cc(/C=C/c3ccc(O)c(OC)c3)n(C(=O)Nc3ccc(Cl)cc3)n2)ccc1O", "BT-549 breast", "%", -14.4],
  ["Cc1nc2sc(C(=O)Nc3cccc(Cl)c3C)c(N)c2cc1C(=O)/C=C/c1ccccc1", "BT-549 breast", "%", -35.7]
]}

// query Provide growth value for the following molecule: `CC1=C2[C@@H](CC1)[C@]1(C)O[C@@](C3CCNCC3)(C[C@H]1OC(=O)CO)[C@H]2OC(=O)/C=C/c1ccccc1`
// result 81.7

---

Tested on: COLO 205 colon
assay_method_text: NCI-60 one-dose screen, 48 h (100 = growth as untreated, 0 = no growth, -100 = all killed)
conditions_used: 10 µM unless noted
Compounds without any hit were thinned out: in the full panel of roughly 83,000, 20% have a hit.
growth values, listed per item
Express the result in % but write the number alone.

Example results:
{"columns": ["compound", "result_unit", "growth"],
 "data": [
  ["CN(C)CCCC1(c2ccc(F)cc2)OCc2cc(-c3csc4ccccc34)ccc21 (stereo not drawn)", "%", -67.8],
  ["O=C1/C(=C/c2c[nH]c(=O)[nH]c2=O)SC(=S)N1Cc1ccccc1", "%", 88.2],
  ["O=C(NCCN1CCOCC1)OCc1ccc2c(Cl)cc(Cl)c(O)c2n1", "%", 109],
  ["CC(O)Cc1c[nH]c(=O)[nH]c1=O (stereo not drawn)", "%", -66.5],
  ["Oc1ccc(-c2nc3ccc4[nH]ncc4c3c3c2CCCC3)c(F)c1", "%", 77.4],
  ["CCOC(=O)c1cnn(CC(C)O)c1NC(=O)NCc1ccccc1C(F)(F)F (stereo not drawn)", "%", 112],
  ["COCCn1cc(-c2nc(-c3cn(CCOC)c4ncccc34)cs2)c2cc(F)ccc21", "%", 35.5],
  ["C[C@H]1[C@H](C)CC[C@]2(C(=O)NCCNCCN)CC[C@]3(C)C(=CC[C@@H]4[C@@]5(C)CCC(=O)C(C)(C)[C@@H]5CC[C@]43C)[C@H]12", "%", -49.9]
]}

// query # return growth for `C=C(C)[C@@H]1CC[C@]2(C(=O)N3CCN(C)CC3)CC[C@]3(C)[C@H](CC[C@@H]4[C@@](C)(CCC(=O)O)[C@H](C(=C)C)CC[C@]43C)[C@@H]12` , test system: COLO 205 colon
// result 94.3

// query State recorded growth with COLO 205 colon, entry `O=C1C(Cl)=C(Nc2ccccc2)C(=O)c2ccccc21` , no comment.
// result 14

// query Report growth on COLO 205 colon for this entry: COc1ccc(C(O)c2cc3c(N)c(C(=O)Nc4cccc5ccccc45)sc3nc2C)cc1 (stereo not drawn)
// result -34.3

// query Print COLO 205 colon growth for `COC12C=C/C(=C(/C(=O)OCCSc3ccnn3C)C(=O)CCCCCCCCC3(OC)C=C/C(=C(/C(=O)OCCSc4ccnn4C)C(=O)CCCCCCCC1)O3)O2` .
// result -41.7

---

Tested on: SK-MEL-2 melanoma
assay_method_text: NCI-60 one-dose screen, 48 h (100 = growth as untreated, 0 = no growth, -100 = all killed)
conditions_used: 10 µM unless noted
About 83,000 compounds went through this panel and 20% of them were active in at least one assay; those are over-represented in the sample as a whole.
readout: growth (%)
Value expressed in %; do not type the unit.

{"columns": ["molecule", "system_name", "growth (%)"],
 "data": [
  ["COc1cc(/C=N/NC(=O)c2ccc(-n3cc(-c4ccccc4)nn3)cc2)cc(OC)c1OC", "SK-MEL-2 melanoma", 98]
]}

// query // fetch growth given entry O=C1CCCC1[n+]1ccccc1 (stereo not given)
// result 85.3

// query Answer with the recorded growth for the molecule listed here: `CC(C)c1ccc2c(c1)CC[C@H]1[C@](C)(C(=O)OCC#CCN3CCCC3)CCC[C@]21C`
// result 103

// query Please give the documented growth of `CC1=C2[C@@H](CC1)[C@]1(C)O[C@@](C3CCNCC3)(C[C@H]1OC(=O)CO)[C@H]2OC(=O)/C=C/c1ccccc1`
// result 106

// query Fill in reported growth for this entry: `O=C(/C=C/c1ccccc1Cl)c1cccc(OCCCCOc2cccc(C(=O)/C=C/c3ccccc3Cl)c2)c1`
// result 110

---

Tested on: SK-MEL-28 melanoma
assay_method_text: NCI-60 one-dose screen, 48 h
conditions_used: 10 µM unless noted
The panel holds about 83,000 compounds, 20% with a hit somewhere; the sample as a whole holds those more often. The source made the active and inactive calls. The calls were made as follows: active = growth percent below 10; inactive = the rest.
Please answer using one outcome listed in TRUE = active, FALSE = inactive

{"columns": ["molecule", "classification"],
 "data": [
  ["COC(=O)/C=C1/SC(=Nc2ccc(F)cc2)N(CCc2c[nH]c3ccc(O)cc23)C1=O", "FALSE"]
]}

// query Name the outcome recorded for `C=C1C(=O)O[C@H]2[C@H]1CC/C(COC(=O)C(=O)c1c[nH]c3ccc(Cl)cc13)=C\CC[C@@]1(C)O[C@@H]21` in the assay.
// result TRUE

// query Can you look up the reported call for `O=C(O)CCCCCCCCCCN1C(=O)/C(=C2/C(=O)N(CC(=O)O)c3ccc(Br)cc32)SC1=S` for me?
// result FALSE

// query Which result was noted for this molecule in the test: `CC[C@H](Nc1nc(N)nc(C)c1C#N)c1nc2cccc(CN(C)c3ncc(C(=O)NO)cn3)c2c(=O)n1-c1ccccc1`
// result TRUE

// query Given `O=C(Nc1cc(Cl)ccc1O)c1ccccc1Nc1ccnc(C(F)(F)F)c1` , state the outcome it received in this test.
// result FALSE

// query In this assay, the call recorded for `N#Cc1nn(-c2cc(=O)[nH]c3ccc(Br)cc23)c(N)c1C#N` was what?
// result FALSE

// query Can you look up the reported call for `Cn1cc(-c2nc3c(F)cc4[nH]ncc4c3c3c2CCCC3)c(C(F)(F)F)n1` for me?
// result FALSE

// query # lookup: test call for `C=CC(=O)Nc1cccc(Oc2nccc(Nc3nnc(-c4ccc(Br)cc4)s3)n2)c1`
// result FALSE

// query Could you please tell me the result logged for CCN(CC)CCCC(Cc1ccccc1)Nc1c2ccc(Cl)cc2nc2ccc(OC)cc12 (configuration not stated) in this assay?
// result TRUE

// query Hi, do you know how `Cc1cccc(NC(=O)Cn2cc(CN3CCN(c4ccnc5cc(Cl)ccc45)CC3)nn2)c1` came out in this test?
// result FALSE

// query Per the assay record, what outcome was assigned to `C=CN(C(=O)N1CCN(c2cc3c(cc2F)c(=O)c(C(=O)O)cn3C2CC2)CC1)c1nc(-c2ccc(Cl)cc2)cs1` ?
// result FALSE

// query Could you check what this test reported for OC1CSSC1Cn1cnc2c(Nc3ccc(OCc4cccc(F)c4)c(Cl)c3)ncnc21 (configuration not stated) ?
// result TRUE

// query Name the outcome recorded for `C#COc1cccc(Nc2ncnc3cc(NC(=O)[C@H](C)Cl)ccc23)c1` in the assay.
// result FALSE

// query Per the assay record, what outcome was assigned to `COc1cc(O)c2c(=O)c3c(CC=C(C)C)cc(OC)c(O)c3oc2c1` ?
// result FALSE

// query So what was the verdict on `Fc1cc2[nH]ncc2c2c3c(c(-c4cn[nH]c4C(F)(F)F)nc12)CCCC3` in this test?
// result TRUE

// query Could you please tell me the result logged for `COc1ccc(-c2nc3ccc(C)cc3c3c2c(=O)n(C)c(=O)n3C)cc1OC` in this assay?
// result FALSE

// query // return assay outcome for `CN1CCN(c2ccc(NC3=CC(=O)c4ncncc4C3=O)cc2)CC1`
// result TRUE

// query Record request — test call for `CC(C)(C)c1ccc(S(=O)(=O)Oc2ccc(-c3sc4cc(OS(=O)(=O)c5ccc(C(C)(C)C)cc5)ccc4c3C(=O)c3ccc(OCCN4CCCCC4)cc3)cc2)cc1`
// result FALSE

---

System: HOP-62 NSCLC
assay_method_text: NCI-60 one-dose screen, 48 h (100 = growth as untreated, 0 = no growth, -100 = all killed)
conditions_used: 10 µM unless noted
Compounds without any hit were thinned out: in the full panel of roughly 83,000, 20% have a hit.
Each entry below carries its reported growth.
Express your answer in %, writing the number without its unit.

Answered cases to consult:
{"columns": ["compound", "result_unit", "growth"],
 "data": [
  ["C=CC(CC(c1ccccc1)(c1ccccc1)c1ccccc1)N(CC)CC (stereo not given)", "%", 87.5],
  ["COc1ccc2cc(-c3nc4ccc(C)cn4c3NCc3ccco3)c(=O)[nH]c2c1", "%", 90.7],
  ["C[N+]1=C(/C=C/c2ccccc2Cl)C(C)(C)c2ccccc21", "%", 98.7],
  ["COc1ccc(C2[C@@H](Cl)C(=O)N2c2cc(OC)c(OC)c(OC)c2)cc1Cl (stereo not given in full)", "%", 21],
  ["COc1ccc(-c2cc(-c3cn(-c4cccc(Cl)c4)nc3-c3ccc(OC)cc3)on2)cc1", "%", 107],
  ["COc1ccc2c(c1)C(C)Cc1c(ncnc1-n1cnc3cc(C)ccc31)N2C (stereo not given)", "%", 28.4]
]}

With those in mind, consider the next compound.
// query Under HOP-62 NSCLC: report growth of `COc1cc(/C=C/c2cc(/C=C/c3ccc(O)c(OC)c3)n(C(=O)Nc3ccc(Cl)cc3)n2)ccc1O` .
// result 17.1

Hello, the source for this data is PubChem BioAssay (NCI), in case you need it.
